Protocol: Crystallographic stability of Form I (TGA, DSC, XRPD, IR after storage)
Type: physicochemical
Test settings: six weeks open, RT/56% RH
Test readout: TGA <225° C. (%)
Could you give me the number in %? Just the number is fine.

Ask | Look at this compound and give its reported TGA <225° C.. Cc1cc(Nc2ccnc3c2CCC3O)ccc1NCCc1c[nH]c2c(C)cccc12 (stereo not shown) [Form I]
Reply | 0.2

---

Protocol: Chemical stability of Form I (HPLC and visual inspection after storage)
Format: physicochemical
Test settings: RT/75% RH, 8 weeks
Test readout: HPLC Sum of impurities (%)
Could you give me the number in %? Just the number is fine.

Ask | Look at this compound and give its reported HPLC Sum of impurities. Cc1cc(Nc2ccnc3c2CCC3O)ccc1NCCc1c[nH]c2c(C)cccc12 (stereo not shown) [Form I]
Reply | 0.18

---

Protocol: Crystallographic stability of Form I (TGA, DSC, XRPD, IR after storage)
Format: physicochemical
Test settings: six weeks open, 40° C./75% RH
Test readout: TGA <225° C. (%)
Could you give me the number in %? Just the number is fine.

Ask | Look at this molecule and give its reported TGA <225° C.. Cc1cc(Nc2ccnc3c2CCC3O)ccc1NCCc1c[nH]c2c(C)cccc12 (stereo not shown) [Form I]
Reply | 0.19

---

Protocol: Chemical stability of Form I (HPLC and visual inspection after storage)
Format: physicochemical
Test settings: RT/56% RH, 8 weeks
Test readout: HPLC Sum of impurities
Could you kindly put the unit after your number?

Ask | Look at this molecule and give its reported HPLC Sum of impurities. Cc1cc(Nc2ccnc3c2CCC3O)ccc1NCCc1c[nH]c2c(C)cccc12 (stereo not shown) [Form I]
Reply | 0.24%

---

Protocol: Chemical stability of Form I (HPLC and visual inspection after storage)
Assay type: physicochemical
Test settings: 50° C., 8 weeks
Test readout: HPLC Sum of impurities (%)
Could you give me the number in %? Just the number is fine.

Ask | Look at this molecule and give its reported HPLC Sum of impurities. Cc1cc(Nc2ccnc3c2CCC3O)ccc1NCCc1c[nH]c2c(C)cccc12 (stereo not shown) [Form I]
Reply | 0.24

---

Protocol: Crystallographic stability of Form I (TGA, DSC, XRPD, IR after storage)
Format: physicochemical
Test settings: six weeks open, RT/75 % RH
Test readout: TGA <175° C.

Ask | Look at this compound and give its reported TGA <175° C.. Cc1cc(Nc2ccnc3c2CCC3O)ccc1NCCc1c[nH]c2c(C)cccc12 (stereo not shown) [Form I]
Reply | 0.14%

---

Protocol: Chemical stability of Form I (HPLC and visual inspection after storage)
Assay type: physicochemical
Test settings: 40° C./75% RH, 1 week
Description: The chemical stability of Form I of compound No. 1 was studied according to the following procedure: Form I was stored in different open conditions for periods of 1, 4 and 8 weeks. These conditions are 40° C./75% RH, 50° C., RT/<5% RH, RT/56% RH, RT/75% RH and 0.3 da ICH light. The compounds were analyzed after storage by HPLC and by visual inspection.
Test readout: HPLC Sum of impurities (%)
Could you give me the number in %? Just the number is fine.

Ask | Look at this compound and give its reported HPLC Sum of impurities. Cc1cc(Nc2ccnc3c2CCC3O)ccc1NCCc1c[nH]c2c(C)cccc12 (stereo not shown) [Form I]
Reply | 0.13
